Attribution: PubChem BioAssay (NCI)

# Tested on: IGROV1 ovarian
# method: NCI-60 one-dose screen, 48 h
# cond: 10 µM unless noted
The panel holds about 83,000 compounds, 20% with a hit somewhere; the sample as a whole holds those more often. Active and inactive are the calls of the source. How the source made its calls: active means growth percent below 10; inactive means the rest.
Outcomes: T (active), F (inactive)

compound=C[C@@H](Nc1c(C#N)cnc2ccc(-c3cnc(Cl)c(NS(C)(=O)=O)c3)cc12)c1ccccc1 class=T
compound=Cc1cc2ncc(-c3cc4ccccc4c(N4CCN(C)CC4)n3)nc2cc1C class=F
compound=NS(=O)(=O)c1ccc(Nc2nc(N/N=C/c3c[nH]c4ccccc34)nc(Nc3ccccc3)n2)cc1 class=F
compound="CC(=O)C1=C(C)NC(NNC(N)=S)=NC1c1ccccc1 (centres undefined)" class=F

* * *

# Tested on: 786-0 renal
# method: NCI-60 one-dose screen, 48 h
# cond: 10 µM unless noted
# Method: Cells are grown in 96 well plates and exposed to the test compound for 48 hours. Compounds are tested at a single concentration, which is 10^-5 M for most compounds. The reported endpoint is percent growth (GI% or GIPRCNT), where numbers from 0 - 100% represent growth inhibition, and numbers from -100% - 0 represent cell death. For example, a value of 40 represents 60% growth inhibition. A value of 0 means no net growth occurred over the course of the experiment. […]
The panel holds about 83,000 compounds, 20% with a hit somewhere; the sample as a whole holds those more often. The source made the active and inactive calls. The calls were made as follows: active = growth percent below 10; inactive = the rest.
Outcomes: 1 (active), -1 (inactive)

compound=COc1ccc([C@@H]2[C@@H](O)C(=O)N2c2cc(OC)c(OC)c(OC)c2)cc1F class=-1
compound="Cc1cccc2c3c(sc12)C(c1ccc(Cl)cc1)c1c(nc(CC(=O)Nc2ccccc2)[nH]c1=O)O3 (stereo unspecified)" class=-1
compound=O=C1C(c2ccccc2)=C(N2CCc3ccccc32)OC1(Cl)Cl class=-1
compound=C#CCOC(=O)[C@@H]1CCCN1CC#C class=-1
compound=ClC(Cl)c1nc(-c2ccco2)n2nc(-c3ccccc3)cc2n1 class=-1
compound=N#Cc1cnc2ccc(-c3cnc4[nH]ncc4c3)cc2c1N1CCc2cc(F)c(Cl)cc21 class=-1
compound=Nc1nc(-c2cccc([N+](=O)[O-])c2)c(N=Nc2ccc(Br)cc2)s1 class=1
compound="CCOC(=O)C(=O)/C(=C\\c1ccc(Cl)cc1)C(=O)N1C(=S)NC(=O)C1CC(C)C (stereo unspecified)" class=-1
compound=O=S(=O)(Nc1cccc2ccccc12)c1ccc(-c2cnc(C3CC3)o2)cc1 class=-1
compound=COc1ccc(C(=O)Nc2ncc(Cc3ccccc3Cl)s2)cc1 class=-1
compound=Cn1cc(-c2nnc(N)nc2-c2c[nH]c3ccc(F)cc23)c2cc(F)ccc21 class=-1
compound=COc1ccc(N2CCN(C3=C(Cl)C(=O)C(C)=C(C)C3=O)CC2)cc1 class=-1
compound=O=C(Nc1ccc(Br)cc1)Nc1nc2ccc([N+](=O)[O-])cc2s1 class=-1
compound=Nc1nc(-c2cccc([N+](=O)[O-])c2)c(N=Nc2ccc([N+](=O)[O-])cc2Cl)s1 class=1
compound="O=C(NNc1nc2cc(F)ccc2n2c(CN3CCC(O)C3)ccc12)c1cnccn1 (stereo unspecified)" class=-1
compound=NC(N)=Nc1ccc(Oc2cccc(Nc3ccc(Br)c(C(F)(F)F)c3)c2)cc1 class=-1

* * *

# System: SF-268 CNS
# method: NCI-60 one-dose screen, 48 h
# cond: 10 µM unless noted
# Procedure: Cells are grown in 96 well plates and exposed to the test compound for 48 hours. Compounds are tested at a single concentration, which is 10^-5 M for most compounds. The reported endpoint is percent growth (GI% or GIPRCNT), where numbers from 0 - 100% represent growth inhibition, and numbers from -100% - 0 represent cell death. For example, a value of 40 represents 60% growth inhibition. A value of 0 means no net growth occurred over the course of the experiment. […]
This is part of a sample that, as a whole, favours compounds with a hit. Of some 83,000 tested, about 20% had one in any assay. Activity calls are given as the source filed them. Rule for the calls: active = growth percent below 10; inactive = the rest.
Outcomes: T (active), F (inactive)

compound=Nc1cc(-c2c[nH]c3ccc(Br)cc23)nc2cc(-c3c[nH]c4ccc(Br)cc34)nn12 class=F
compound=O=C(CCC(=O)N1CCOCC1)OCCCCCCSc1ccc([N+](=O)[O-])c2nonc12 class=T
compound="O=C(NNc1nc2cc(F)ccc2n2c(CN3CC4CNCC4C3)ccc12)c1cnccn1 (stereo not given)" class=F
compound=Cc1ccc(-c2cc3nc(C(Cl)Cl)nc(-c4cccs4)n3n2)cc1 class=F
compound="O=C(NNc1nc2cc(F)c(F)cc2n2c(CN3CC4CNCC4C3)ccc12)c1ncccn1 (stereo not given)" class=F
compound=CC1(C)[C@@H](O)CC[C@]2(C)[C@H]3CC[C@@H]4[C@H]5[C@H](C(=O)/C=C\c6ccncc6)CC[C@]5(O)CC[C@@]4(C)[C@]3(C)CC[C@@H]12 class=F
compound="CCC1=Cc2cc(OC)ccc2OC12C=Cc1cc(OC)ccc1O2 (stereo not given)" class=F
compound=O=C(O)c1ccc(-n2cc(CNc3cc(F)c(F)c(F)c3)c(-c3cccc(F)c3)n2)cc1 class=F
compound=CN1CCN(Cc2ccc(NC(=O)c3cncc(C#Cc4cnc5ccc(N6CCN(C)CC6)nn45)c3)cc2C(F)(F)F)CC1 class=T
compound=N#Cc1cnc2ccc(-c3cnc(N)nc3)cc2c1N1CCc2cc(F)c(Cl)cc21 class=T
compound="CC1=CC(=O)C2=C(C)CC(OC(=O)CCc3ccccc3)[C@@H]3[C@H](OC(=O)[C@@H]3C)[C@@H]12 (stereo not given in full)" class=F
compound=COc1ccc2c(c1)c(-c1cc(N)n3nc(-c4cn(C)c5ccc(OC)cc45)cc3n1)cn2C class=F
compound=COc1cc(-c2nn(C(C)(C)C)cc2-c2ccnc(NCCCNS(=O)(=O)c3ccc(C)cc3)n2)ccc1Cl class=F
compound=CC(C)(C)c1ccc(-c2nnc(-c3nc4ccccc4nc3Cl)o2)cc1 class=F
compound="COc1ccc(C2c3sc4c(C)cccc4c3Oc3nc(CC(=O)Nc4ccccc4)[nH]c(=O)c32)cc1 (stereo not given)" class=F
compound=O=C(NCCn1ccnc1)c1ccc(-c2nc3ccc4[nH]ncc4c3c3c2CCCC3)cc1 class=F
compound=Cn1ccnc1C(=O)/C=C/C=C/c1ccc(C(=O)Nc2ccc(F)cc2)cc1 class=F
compound=CS(=O)(=O)Nc1cc(-c2ccc3ncc(C#N)c(N[C@H](CO)c4ccccc4)c3c2)cnc1Cl class=F
compound="CC(C)(C)n1nnnc1C(Nc1cccc2c1OCO2)c1cc2cccc3ccc4cccc1c4c32 (stereo not given)" class=F
compound=C=CC(=O)N1CC=C(c2cc3c(N[C@H](C)c4ccccc4)ncnc3[nH]2)CC1 class=F

* * *

# Tested on: SF-539 CNS
# method: NCI-60 one-dose screen, 48 h (100 = growth as untreated, 0 = no growth, -100 = all killed)
# cond: 10 µM unless noted
About 83,000 compounds went through this panel and 20% of them were active in at least one assay; those are over-represented in the sample as a whole.
Response field label: string, one of Criterion met (growth strictly below 70%) or Criterion not met.

compound=N#Cc1c(NC(=O)c2cccc(C(F)(F)F)c2F)sc2c1CCC(=O)C2 class="Criterion met"
compound=CC1(C)[C@@H](O)CC[C@]2(C)[C@H]3CC[C@@H]4[C@H]5[C@H](C(=O)/C=C\c6ccc([N+](=O)[O-])cc6)CC[C@]5(O)CC[C@@]4(C)[C@]3(C)CC[C@@H]12 class="Criterion met"
compound=CC1=NC2=NN3C(=NN2C(c2ccccc2)=C1)N=NC(c1ccc(Br)cc1)=C3c1ccc(Br)cc1 class="Criterion not met"
compound=Cc1nn(-c2ccccc2)c2ncnc(N/N=C/c3cccc(O)c3)c12 class="Criterion met"
compound=O=C(CSc1nnc(-c2ccc3nc(-c4ccccc4)[nH]c3c2)o1)Nc1ccc(C(=O)/C=C/c2ccccc2)cc1 class="Criterion not met"
compound=Cc1nn(-c2ccccc2)c2ncnc(N/N=C/c3ccccc3O)c12 class="Criterion met"
compound=COc1ccc(-n2c(SCc3nnc(NC(=O)c4ccc(Br)cc4)s3)nc3cc(OC)c(OC)cc3c2=O)cc1 class="Criterion not met"
compound=CCCCCc1ccc(S(=O)(=O)Nc2cccc(-c3csc(NC(=O)CCCCCN4CCN(CCO)CC4)n3)c2)cc1 class="Criterion met"
compound=O=C(CNc1nc(-c2cccc([N+](=O)[O-])c2)cs1)Nc1cccc(Cl)c1 class="Criterion not met"
compound=Nc1nc(-c2cccc([N+](=O)[O-])c2)c(N=Nc2ccc([N+](=O)[O-])cc2Cl)s1 class="Criterion met"
compound="CCOC(=O)C(=O)/C(=C\\c1ccc(Cl)cc1)C(=O)N1C(=S)NC(=O)C1CC(C)C (configuration not stated)" class="Criterion not met"
compound=CC1(C)CC[C@]2(C(=O)O)CC[C@]3(C)C(=CC[C@@H]4[C@@]5(C)CC/C(=N\OCCC#N)C(C)(C)[C@@H]5CC[C@]43C)[C@@H]2C1 class="Criterion not met"
